- assayName: Total clearance in dog at 0.3 mg/kg, iv
- Assay type: ADME, organism-based, Canis lupus familiaris
- setupConditions: in vivo
reportedMetric: clearance (mL/min/kg)
I only need the number, in mL/min/kg, no unit after it.

Tell me the measured clearance of C[C@H]1CN(C(=O)CC#N)[C@]12CCN(c1ncnc3[nH]ccc13)C2 [DELGOCITINIB] , please. 6.17

* * *

- assayName: Tmax in dog at 1 mg/kg, po
- Format: ADME, organism-based, Canis lupus familiaris
- setupConditions: in vivo
reportedMetric: Tmax (min)
I only need the number, in min, no unit after it.

Tell me the measured Tmax of "C[C@H]1CN(C(=O)CC#N)[C@]12CCN(c1ncnc3[nH]ccc13)C2" , please. 54

* * *

Measured remaining at 1 h values are reported for all entries that follow.
- assayName: Metabolic stability in monkey liver microsomes incubated for 60 mins
- Type: ADME, Macaca mulatta, Microsome
- setupConditions: rhesus monkey, read-out: Stability
I only need the number, in %, no unit after it.

| molecule | remaining at 1 h [%] |
| --- | --- |
| N#CCC(=O)N1CC(F)(F)C12CCCN(c1ncnc3[nH]ccc13)C2 (single isomer, unassigned) | 64.6 |
| N#CCC(=O)N1CCCC12CCCN(c1ncnc3[nH]ccc13)C2 (single isomer, unassigned) | 29.4 |
| N#CCC(=O)N1CCC12CCCN(c1ncnc3[nH]ccc13)C2 (single isomer, unassigned) | 85.2 |
| CC1CN(C(=O)CC#N)C12CCCN(c1ncnc3[nH]ccc13)C2 (stereo unspecified) | 25.1 |
| N#CCC(=O)N1CC(F)(F)C12CCN(c1ncnc3[nH]ccc13)C2 (single isomer, unassigned) | 95.4 |

Continue with the molecule presented below.
Tell me the measured remaining at 1 h of C[C@H]1CN(C(=O)CC#N)[C@]12CCN(c1ncnc3[nH]ccc13)C2 [DELGOCITINIB] , please. 99.6

* * *

- assayName: Solubility of the compound in PBS buffer
- Type: physicochemical
reportedMetric: solubility

Tell me the measured solubility of C[C@H]1CN(C(=O)CC#N)[C@]12CCN(c1ncnc3[nH]ccc13)C2 [DELGOCITINIB] , please. > 95 µM

* * *

- assayName: Solubility of the compound in FaSSIF
- Assay type: physicochemical
reportedMetric: solubility

Tell me the measured solubility of "C[C@H]1CN(C(=O)CC#N)[C@]12CCN(c1ncnc3[nH]ccc13)C2" , please. > 475 µM

* * *

- assayName: Oral bioavailability in dog at 1 mg/kg
- Format: ADME, organism-based, Canis lupus familiaris
- setupConditions: in vivo
reportedMetric: bioavailability (%)
I only need the number, in %, no unit after it.

Tell me the measured bioavailability of C[C@H]1CN(C(=O)CC#N)[C@]12CCN(c1ncnc3[nH]ccc13)C2 [DELGOCITINIB] , please. 124

* * *

- assayName: Solubility of the compound in FeSSIF
- Type: physicochemical
reportedMetric: solubility

Tell me the measured solubility of "C[C@H]1CN(C(=O)CC#N)[C@]12CCN(c1ncnc3[nH]ccc13)C2" , please. > 475 µM

* * *

- assayName: Lipophilicity, logD of the compound at pH 7
- Type: physicochemical
- setupConditions: buffer
reportedMetric: logD

Tell me the measured logD of "C[C@H]1CN(C(=O)CC#N)[C@]12CCN(c1ncnc3[nH]ccc13)C2" , please. 0.6

* * *

Measured remaining at 1 h values are reported for all entries that follow.
- assayName: Metabolic stability in human liver microsomes incubated for 60 mins
- Assay type: ADME, Microsome
- setupConditions: read-out: Stability
I only need the number, in %, no unit after it.

Tell me the measured remaining at 1 h of N#CCC(=O)N1CC(F)(F)C12CCCN(c1ncnc3[nH]ccc13)C2 (single isomer, unassigned) , please. 88.4

Continue with N#CCC(=O)N1CC(F)(F)C12CCN(c1ncnc3[nH]ccc13)C2 (single isomer, unassigned) 99.4

* * *

- assayName: Clearance in monkey at 0.1 mg/kg, iv
- Format: ADME, organism-based, Macaca mulatta
- setupConditions: rhesus monkey, in vivo
Measured clearance values are reported for all entries that follow.

Sample records with clearance:
| compound | clearance |
| --- | --- |
| N#CCC(=O)N1CCC12CCCN(c1ncnc3[nH]ccc13)C2 (single isomer, unassigned) | 12.7 mL/min/kg |
| N#CCC(=O)N1CC(F)(F)C12CCN(c1ncnc3[nH]ccc13)C2 (single isomer, unassigned) | 5.83 mL/min/kg |

Continue with the compound presented below.
Tell me the measured clearance of C[C@H]1CN(C(=O)CC#N)[C@]12CCN(c1ncnc3[nH]ccc13)C2 [DELGOCITINIB] , please. 4.83 mL/min/kg

* * *

- assayName: Terminal half life in dog at 0.3 mg/kg, iv
- Type: ADME, organism-based, Canis lupus familiaris
- setupConditions: in vivo, read-out: beta t1/2 (converted)
reportedMetric: half-life (h)
I only need the number, in h, no unit after it.

Tell me the measured half-life of "C[C@H]1CN(C(=O)CC#N)[C@]12CCN(c1ncnc3[nH]ccc13)C2" , please. 2.3

* * *

- assayName: Metabolic stability in monkey hepatocytes incubated for 60 mins
- Assay type: ADME, cell-based, Macaca mulatta, Hepatocyte
- setupConditions: rhesus monkey, read-out: Stability
reportedMetric: remaining at 1 h (%)
I only need the number, in %, no unit after it.

Tell me the measured remaining at 1 h of "C[C@H]1CN(C(=O)CC#N)[C@]12CCN(c1ncnc3[nH]ccc13)C2" , please. 84.8

* * *

- assayName: Metabolic stability in dog liver microsomes incubated for 60 mins
- Type: ADME, Canis lupus familiaris, Microsome
- setupConditions: read-out: Stability
reportedMetric: remaining at 1 h (%)
I only need the number, in %, no unit after it.

Tell me the measured remaining at 1 h of "C[C@H]1CN(C(=O)CC#N)[C@]12CCN(c1ncnc3[nH]ccc13)C2" , please. 97.2

* * *

- assayName: Oral bioavailability in rat at 10 mg/kg
- Assay type: ADME, organism-based
- setupConditions: in vivo
reportedMetric: bioavailability (%)
I only need the number, in %, no unit after it.

Tell me the measured bioavailability of "C[C@H]1CN(C(=O)CC#N)[C@]12CCN(c1ncnc3[nH]ccc13)C2" , please. 78

* * *

- assayName: Apparent permeability in human Caco2 cells
- Format: ADME, cell-based
- setupConditions: Caco-2
reportedMetric: Papp (×10⁻⁶ cm/s)
I only need the number, in ×10⁻⁶ cm/s, no unit after it.

Tell me the measured Papp of "C[C@H]1CN(C(=O)CC#N)[C@]12CCN(c1ncnc3[nH]ccc13)C2" , please. 0.033

* * *

- assayName: Solubility of the compound in human Caco2 cells
- Assay type: ADME, cell-based
- setupConditions: Caco-2 cells
reportedMetric: solubility (µM)
I only need the number, in µM, no unit after it.

Tell me the measured solubility of C[C@H]1CN(C(=O)CC#N)[C@]12CCN(c1ncnc3[nH]ccc13)C2 [DELGOCITINIB] , please. 1

* * *

- assayName: Tmax in rat at 10 mg/kg, po
- Type: ADME, organism-based
- setupConditions: in vivo
reportedMetric: Tmax
In your response, put the unit directly after the numeric value.

Tell me the measured Tmax of C[C@H]1CN(C(=O)CC#N)[C@]12CCN(c1ncnc3[nH]ccc13)C2 [DELGOCITINIB] , please. 1.5 h

* * *

- assayName: Terminal half life in rat at 1 mg/kg, iv
- Format: ADME, organism-based
- setupConditions: in vivo, read-out: beta t1/2 (converted)
reportedMetric: half-life (h)
I only need the number, in h, no unit after it.

Tell me the measured half-life of "C[C@H]1CN(C(=O)CC#N)[C@]12CCN(c1ncnc3[nH]ccc13)C2" , please. 1.7

* * *

- assayName: Cmax in dog at 1 mg/kg, po
- Format: ADME, organism-based, Canis lupus familiaris
- Design: dose 1 mg/kg, route oral
- setupConditions: in vivo
reportedMetric: Cmax (ng/mL)
I only need the number, in ng/mL, no unit after it.

Tell me the measured Cmax of "C[C@H]1CN(C(=O)CC#N)[C@]12CCN(c1ncnc3[nH]ccc13)C2" , please. 1.9

* * *

- assayName: Total clearance in rat at 1 mg/kg, iv
- Assay type: ADME, organism-based
- setupConditions: in vivo
reportedMetric: clearance

Tell me the measured clearance of "C[C@H]1CN(C(=O)CC#N)[C@]12CCN(c1ncnc3[nH]ccc13)C2" , please. 35 mL/min/kg

* * *

- assayName: Cmax in rat at 10 mg/kg, po
- Format: ADME, organism-based
- Set-up: dose 10 mg/kg, route oral
- setupConditions: in vivo
reportedMetric: Cmax (ng/mL)
I only need the number, in ng/mL, no unit after it.

Tell me the measured Cmax of "C[C@H]1CN(C(=O)CC#N)[C@]12CCN(c1ncnc3[nH]ccc13)C2" , please. 2.5

* * *

- assayName: MRT in rat at 1 mg/kg, iv
- Type: ADME, organism-based
- setupConditions: in vivo
reportedMetric: MRT (h)
I only need the number, in h, no unit after it.

Tell me the measured MRT of C[C@H]1CN(C(=O)CC#N)[C@]12CCN(c1ncnc3[nH]ccc13)C2 [DELGOCITINIB] , please. 1
